Target: purified HLA DRB1*0101 (human)
Assay: competitive inhibition of 125I-labeled peptide binding to purified HLA
PROPERTY MEASURED: IC50 (nM)
Numbers only, in nM.

Give the measured IC50 of RREVHIYYLEKANKI (modifications not checked) [Flu.PA.127 peptide …] .
34
